Listing of recorded LD50 by entry.
assay text: Acute toxicity (LD50)
condition notes: rat, in vivo, po; P.O. in Rats
parameter: LD50

- compound: "Cc1cc(OCC(=O)O)cc2occ(-c3ccccc3)c(=O)c12 [(b)]"
  parameter: "LD50"
  result: "936 mg/kg"
- compound: "O=C(O)COc1cc(Cl)c2c(=O)c(-c3ccccc3Cl)coc2c1 [(c)]"
  parameter: "LD50"
  result: "1410 mg/kg"
- compound: "O=C(O)COc1cc(Cl)c2c(=O)c(-c3ccccc3)coc2c1 [(a)]"
  parameter: "LD50"
  result: "1020 mg/kg"
